B1: LYSMD4 (parent)
chain: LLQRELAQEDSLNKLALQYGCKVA

variants of: B1; test: protein stability index of a GFP-peptide fusion (GPS, HEK-293T) (PSI 1-6); higher = more stable; details: c terminus: a fixed tail appended;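 further: lentivirally expressed fusions sorted by FACS into six bins by GFP to DsRed ratio, PSI derived from sequencing read proportions per bin multiplied by bin number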
Assign class by protein stability index: not lower than 2 means true; lower than 2 means false.

Solved cases (2 shown):
{"Variant Description": "L6H", "Class Name": "true"}
{"Variant Description": "E5K", "Class Name": "false"}

stdin: Has D10T a recorded protein stability index greater than or equal to 2?
stdout: false

stdin: Has Q18W a recorded protein stability index greater than or equal to 2?
stdout: true

stdin: Has L1F a recorded protein stability index greater than or equal to 2?
stdout: false
